Hey, just so you know, these numbers are from patent US11207312B2.

targetOrSystem: VIM-1 (Pseudomonas aeruginosa (strain ATCC 15692 / DSM 22644 / CIP 104116 / JCM 14847 / LMG 12228 / 1C / PRS 101 / PAO1))
testName: biochemical
testSettings: CCF2-FA fluorescence assay, 2 hours at 25° C.; read-out: VIM1 IC50
Binary label based on IC50 with cut-off 0.3 nM: below gives class 1, not below gives class 0.

Here are 3 molecules together with their reported answers.
>>> grouplabel("NC[C@@H](O)CNS(=O)(=O)c1ccc(N2CCC(CC(N)=O)CC2)c(-c2nn[nH]n2)c1S(N)(=O)=O")
"class 1"
>>> grouplabel("NS(=O)(=O)c1c(S(=O)(=O)N[C@@H]2CCNC2)ccc(N2CCCC(=O)C2=O)c1-c1nn[nH]n1")
"class 0"
>>> grouplabel("COC1(CO)CCN(c2ccc(S(=O)(=O)NC[C@H](O)CN)c(S(N)(=O)=O)c2-c2nn[nH]n2)CC1")
"class 0"

Query :: Consider the molecule C[N+](C)(C)CCCCNc1ccc(S(=O)(=O)N[C@@H]2CCNC2)c(S(N)(=O)=O)c1-c1nnn[nH]1 . Is its IC50 strictly less than 0.3 nM?
Result :: class 0

Query :: Consider the molecule COC(=O)C1CCN(c2ccc(S(=O)(=O)N[C@@H]3CCNC3)c(S(N)(=O)=O)c2-c2nn[nH]n2)CCN1.Cl (stereo partly shown) [Example 164, hydrochloride] . Is its IC50 strictly less than 0.3 nM?
Result :: class 1

Query :: Consider the molecule N[C@H]1CCN(c2ccc(S(=O)(=O)N[C@@H]3CCNC3)c(S(N)(=O)=O)c2-c2nn[nH]n2)C[C@H]1F . Is its IC50 strictly less than 0.3 nM?
Result :: class 1

Query :: Consider the molecule CC1(O)CCN(c2ccc(S(=O)(=O)N[C@@H]3CCNC3)c(S(N)(=O)=O)c2-c2nnn[nH]2)CC1 . Is its IC50 strictly less than 0.3 nM?
Result :: class 0

---

Test system: Serratia marcescens expressing IMP-1 (CL5741)
Type: cell-based
testSettings: with imipenem 1 μg/ml; 95% inhibition of bacterial growth
valueType: CL5741 S. marcescens MITC95 IMP
Quick note: number first, unit second.

Example molecules with recorded CL5741 S. marcescens MITC95 IMP:
>>> value("NC(=O)C1CCN(c2ccc(S(=O)(=O)N[C@@H]3CCNC3)c(S(N)(=O)=O)c2-c2nnn[nH]2)CC1")
"6.25 µM"
>>> value("NS(=O)(=O)c1c(S(=O)(=O)N[C@@H]2CCNC2)ccc(N2CCN(CCO)CC2)c1-c1nn[nH]n1")
"0.20 µM"

--- query ---
Query :: For the molecule shown here, NCCNS(=O)(=O)C1CCN(c2ccc(S(=O)(=O)NC[C@H](O)CN)c(S(N)(=O)=O)c2-c2nn[nH]n2)CC1 [Example 190] , give the reported CL5741 S. marcescens MITC95 IMP.
Result :: 0.78 µM

---

Give measured log10(IC50) for each item. Keep answers brief.
targetOrSystem: UniProtKB Q5U7L7
testName: biochemical
testSettings: CCF2-FA fluorescence assay; read-out: VIM2 IC50
In plain terms, each number is the log10 of measured IC50 in nM.

Example compounds with recorded log10(IC50):
>>> value("NC[C@@H](O)CNS(=O)(=O)c1ccc(N2CCC(C(N)CO)CC2)c(-c2nn[nH]n2)c1S(N)(=O)=O (single isomer, unassigned) [Example 181]")
0.77
>>> value("NS(=O)(=O)c1c(S(=O)(=O)N[C@@H]2CCNC2)ccc(N2CCN(CCO)CC2)c1-c1nn[nH]n1")
0.80
>>> value("NC[C@@H](O)CNS(=O)(=O)c1ccc(Nc2ncc[nH]2)c(-c2nn[nH]n2)c1S(N)(=O)=O")
1.29
>>> value("CC1CN(c2ccc(S(=O)(=O)NC[C@H](O)CN)c(S(N)(=O)=O)c2-c2nn[nH]n2)CCN1CCO.O=C(O)C(F)(F)F.O=C(O)C(F)(F)F (stereo partly drawn) [Example 176, trifluoroacetate) salt]")
1.07
>>> value("COC1(CO)CCN(c2ccc(S(=O)(=O)N[C@H](C)CN)c(S(N)(=O)=O)c2-c2nn[nH]n2)CC1")
0.36

Parameter requested: log10(IC50). Apply to each item below.
1. NC[C@@H](O)CNS(=O)(=O)c1ccc(N2CCN(CCCO)CC2)c(-c2nnn[nH]2)c1S(N)(=O)=O
2. COC(=O)C1CCN(c2ccc(S(=O)(=O)N[C@@H]3CCNC3)c(S(N)(=O)=O)c2-c2nn[nH]n2)CCN1.Cl (stereo partly drawn) [Example 164, hydrochloride]
3. COC1(CN(C)C)CN(c2ccc(S(=O)(=O)N[C@@H]3CCNC3)c(S(N)(=O)=O)c2-c2nnn[nH]2)C1
4. NCC=C1CCCN(c2ccc(S(=O)(=O)NC[C@H](O)CN)c(S(N)(=O)=O)c2-c2nn[nH]n2)C1 (single isomer, unassigned; isomer a)
5. CN(C)[C@@H]1CCN(c2ccc(S(=O)(=O)N[C@@H]3CCNC3)c(S(N)(=O)=O)c2-c2nnn[nH]2)C1
6. C[C@H](CN)NS(=O)(=O)c1ccc(N2CCC(CO)CC2)c(-c2nnn[nH]2)c1S(N)(=O)=O
7. NC[C@@H](O)CNS(=O)(=O)c1ccc(N2CCC3(CC2)CNC(=O)OC3)c(-c2nn[nH]n2)c1S(N)(=O)=O

Result ::
[0.87, -0.16, 1.81, 0.03, 1.25, -0.49, 0.44]

Parameter requested: log10(IC50). Apply to each item below.
1. NS(=O)(=O)c1c(S(=O)(=O)N[C@@H]2CCNC2)ccc(N2CC(N3CCOCC3)C2)c1-c1nnn[nH]1
2. NS(=O)(=O)c1c(S(=O)(=O)N[C@@H]2CCNC2)ccc(N2CCC(CCO)CC2)c1-c1nnn[nH]1
3. NS(=O)(=O)c1c(S(=O)(=O)N[C@@H]2CCNC2)ccc(N2CCC(c3c[nH]cn3)CC2)c1-c1nn[nH]n1
4. NS(=O)(=O)c1c(S(=O)(=O)N[C@@H]2CCNC2)ccc(N2CC[C@H](O)C2)c1-c1nnn[nH]1
5. NS(=O)(=O)c1c(S(=O)(=O)N[C@@H]2CCNC2)ccc(N2CC[C@H](CO)C2)c1-c1nnn[nH]1
6. NC[C@@H](O)CNS(=O)(=O)c1ccc(N2CCC(O)CC2)c(-c2nn[nH]n2)c1S(N)(=O)=O

Result ::
0.94
-0.23
-0.28
0.65
0.01
-0.10

Parameter requested: log10(IC50). Apply to each item below.
1. NC[C@@H](O)CNS(=O)(=O)c1ccc(N2CCNC(CO)C2)c(-c2nn[nH]n2)c1S(N)(=O)=O (stereo partly drawn)
2. N[C@@H]1CCN(c2ccc(S(=O)(=O)N[C@@H]3CCNC3)c(S(N)(=O)=O)c2-c2nn[nH]n2)C[C@@H]1F

Result ::
1: 0.84; 2: 1.04

Parameter requested: log10(IC50). Apply to each item below.
1. N[C@@H]1CCCN(c2ccc(S(=O)(=O)N[C@@H]3CCNC3)c(S(N)(=O)=O)c2-c2nn[nH]n2)C1=O
2. NC[C@@H](O)CNS(=O)(=O)c1ccc(N2CCC3(CCNC3)C2)c(-c2nn[nH]n2)c1S(N)(=O)=O (stereo partly drawn)

Result ::
1: 0.84; 2: 1.76

Parameter requested: log10(IC50). Apply to each item below.
1. CC(=O)N[C@H]1CCN(c2ccc(S(=O)(=O)N[C@@H]3CCNC3)c(S(N)(=O)=O)c2-c2nnn[nH]2)C1
2. NS(=O)(=O)c1c(S(=O)(=O)N[C@@H]2CCNC2)ccc(N2CCC(O)CC2=O)c1-c1nn[nH]n1 (stereo partly drawn)

Result ::
1: 0.45; 2: 0.42
